TARGET_UNDER_TEST: T1, 4Ig-B7H3 fused to mouse Fc (B7H3-mFc) (human, UniProt Q5ZPR3 29-466, limits assumed, biotinylated on primary amines (NHS-biotin) in the experiment of paragraph 316)
T1 construct: Expressed in DG44 CHO cells; also called 4Ig-B7H3-Fc; 4Ig-B7H3-mFc; not shown: mouse Fc
T1 sequence (looked up): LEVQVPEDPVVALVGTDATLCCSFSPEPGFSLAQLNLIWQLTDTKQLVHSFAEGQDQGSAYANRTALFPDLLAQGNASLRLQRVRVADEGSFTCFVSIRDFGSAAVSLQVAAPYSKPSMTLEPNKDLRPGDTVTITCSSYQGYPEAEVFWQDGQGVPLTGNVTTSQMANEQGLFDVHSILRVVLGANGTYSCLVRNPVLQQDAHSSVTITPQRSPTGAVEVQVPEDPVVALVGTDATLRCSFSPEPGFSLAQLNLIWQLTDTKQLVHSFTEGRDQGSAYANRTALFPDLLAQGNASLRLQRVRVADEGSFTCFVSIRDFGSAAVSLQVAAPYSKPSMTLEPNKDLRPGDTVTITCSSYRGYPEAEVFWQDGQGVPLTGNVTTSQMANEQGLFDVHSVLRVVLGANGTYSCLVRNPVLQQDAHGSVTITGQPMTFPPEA
EXPERIMENTAL_DETAILS: SPR, IgG on 4Ig-B7H3-Fc
MEASUREMENT_TYPE: kon (M⁻¹ s⁻¹)
Give just the numeric value; M⁻¹ s⁻¹ need not be written.

Q. Reported kon, binder hu8H9-H1L2 IgG1 (antibody, V domains shown) VH: QVQLVQSGAEVKKPGASVKLSCKASGYTFTNYDINWVRQAPGQGLEWIGWIFPGDGSTQYNEKFKGKATLTTDTSTSTAYMELSSLRSEDTAVYFCARQTTATWFAYWGQGTLVTVSS VL: EIVMTQSPATLSVSPGERVTLSCRASQSISDYLHWYQQKSHESPRLLIKYASQSISGIPARFSGSGSGTEFTLTINSVEPEDVGVYYCQNGHSFPLTFGQGTKLEIKR : ____
A. 560000

Q. Reported kon, binder hu8H9 5.1 IgG1 (antibody, V domains shown, also called clone 5.1) VH: QVQLVQSGAEVVKPGASVKVSCKTSGYTFTNYDINWVRQRPGQGLEWIGWIFPGDDSTQYNEKFKGRVTMTTDTSTSTVYMELSSLRSEDTAVYFCARQTTGTWFAYWGQGTLVTVSS VL: EIVMTQSPATLSVSPGERVTLSCRASQSISDYLYWYQQKSHQAPRLLIKYASQSISGIPARFSGSGSGSEFTLTISSLQPEDFGVYYCQNGHSFPLTFGQGTKLELKR : ____
A. 59200
